Here the recorded Anti-bacterial activity (MIC), strain ECO+ 15-4 is given for each entry.
system: Escherichia coli (including ESBLs, non-ESBLs); assay: MIC, two-fold agar dilution (CLSI), clinical isolates; assay type: cell-based; conditions: clinical isolate ECO+ 15-4
PARAMETER_MEASURED: Anti-bacterial activity (MIC), strain ECO+ 15-4 (µg/mL)

molecule="O=C(C[C@@H](CC1CCCC1)C(=O)N1CC2(CC2)C[C@H]1C(=O)Nc1ccncn1)NO [Example 63]" experimental_system="Escherichia coli (including ESBLs, non-ESBLs)" unit_spec=µg/mL sign_qualifier== measured=16
molecule="O=C(C[C@@H](CC1CCCC1)C(=O)N1CC2(CC2)C[C@H]1C(=O)Nc1ncco1)NO [Example 69]" experimental_system="Escherichia coli (including ESBLs, non-ESBLs)" unit_spec=µg/mL sign_qualifier=> measured=32
molecule="Cc1cc(NC(=O)[C@@H]2CC3(CC3)CN2C(=O)[C@@H](CC(=O)NO)CC2CCCC2)no1 [Example 71]" experimental_system="Escherichia coli (including ESBLs, non-ESBLs)" unit_spec=µg/mL sign_qualifier== measured=32
molecule="O=C(C[C@@H](CC1CCCC1)C(=O)N1CC2(CC2)C[C@H]1C(=O)Nc1nccs1)NO [Example 72]" experimental_system="Escherichia coli (including ESBLs, non-ESBLs)" unit_spec=µg/mL sign_qualifier== measured=16
molecule="O=C(C[C@@H](CC1CCCC1)C(=O)N1CC2(CC2)C[C@H]1C(=O)Nc1nncs1)NO [Example 74]" experimental_system="Escherichia coli (including ESBLs, non-ESBLs)" unit_spec=µg/mL sign_qualifier=> measured=32
molecule="O=C(C[C@@H](CC1CCCC1)C(=O)N1CC2(CC2)C[C@H]1C(=O)Nc1ccno1)NO [Example 70]" experimental_system="Escherichia coli (including ESBLs, non-ESBLs)" unit_spec=µg/mL sign_qualifier== measured=16
molecule="CCCC[C@H](CC(=O)NO)C(=O)N1CC2(CC2)C[C@H]1C(=O)Nc1cnn(CCN(C)C)c1 [Example 52]" experimental_system="Escherichia coli (including ESBLs, non-ESBLs)" unit_spec=µg/mL sign_qualifier=> measured=32
molecule="CCCC[C@H](CC(=O)NO)C(=O)N1CC2(CC2)C[C@H]1C(=O)Nc1nc(C(F)(F)F)cs1 [Example 57]" experimental_system="Escherichia coli (including ESBLs, non-ESBLs)" unit_spec=µg/mL sign_qualifier=> measured=32

* * *

system: Enterococcus faecalis (EFA); experiment: MIC, two-fold agar dilution (CLSI), clinical isolates; type: cell-based; conditions: strain EFA 15-2
Listing of recorded Anti-bacterial activity (MIC) by entry.
PARAMETER_MEASURED: Anti-bacterial activity (MIC)

compound=O=C(C[C@@H](CC1CCCC1)C(=O)N1CC2(CC2)C[C@H]1C(=O)Nc1ccno1)NO parameter_measured="Anti-bacterial activity (MIC)" measured="32 mg/L"
compound=O=C(C[C@@H](CC1CCCC1)C(=O)N1CC2(CC2)C[C@H]1C(=O)Nc1nncs1)NO parameter_measured="Anti-bacterial activity (MIC)" measured="> 32 mg/L"
compound="CCCC[C@H](CN(O)C=O)C(=O)N1CCC[C@H]1C(=O)Nc1ccc(F)c[n+]1[O-] [LBM415, reference compound]" parameter_measured="Anti-bacterial activity (MIC)" measured="2 mg/L"
compound=CCCC[C@H](CC(=O)NO)C(=O)N1CC2(CCCC2)C[C@H]1C(=O)Nc1ncc(C)s1 parameter_measured="Anti-bacterial activity (MIC)" measured="32 mg/L"
compound=O=C(C[C@@H](CC1CCCC1)C(=O)N1CC2(CC2)C[C@@H]1c1nc2ccccc2[nH]1)NO parameter_measured="Anti-bacterial activity (MIC)" measured="> 32 mg/L"
compound=O=C(C[C@@H](CC1CCCC1)C(=O)N1CC2(CC2)C[C@H]1C(=O)Nc1nccs1)NO parameter_measured="Anti-bacterial activity (MIC)" measured="32 mg/L"
compound=Cc1cc(NC(=O)[C@@H]2CC3(CC3)CN2C(=O)[C@@H](CC(=O)NO)CC2CCCC2)no1 parameter_measured="Anti-bacterial activity (MIC)" measured="2 mg/L"

* * *

test system: Enterococcus faecalis (EFA); test: MIC, two-fold agar dilution (CLSI), clinical isolates; format: cell-based; settings: clinical isolate EFA 15-4
Measured Anti-bacterial activity (MIC), strain EFA 15-4, listed per entry.
PARAMETER_MEASURED: Anti-bacterial activity (MIC), strain EFA 15-4

molecule="O=C(C[C@@H](CC1CCCC1)C(=O)N1CC2(CC2)C[C@H]1C(=O)Nc1ccncn1)NO [Example 63]" measured="> 32 µg/mL"
molecule="CCCC[C@H](CC(=O)NO)C(=O)N1CC2(CC2)C[C@H]1C(=O)Nc1ccc(F)cn1 [Example 46]" measured="> 32 µg/mL"
molecule="O=CN(O)C[C@@H](CC1CCCC1)C(=O)N1CC2(CC2)C[C@H]1c1nc2ccccc2[nH]1 [Example 42]" measured="16 µg/mL"
molecule="CCCC[C@H](CC(=O)NO)C(=O)N1CC2(CC2)C[C@H]1C(=O)Nc1cc(C(C)(C)C)on1 [Example 55]" measured="> 32 µg/mL"
molecule="O=C(C[C@@H](CC1CCCC1)C(=O)N1CC2(CC2)C[C@H]1C(=O)Nc1cnccn1)NO [Example 62]" measured="> 32 µg/mL"
molecule="CCCC[C@H](CC(=O)NO)C(=O)N1CC2(CC2)C[C@H]1C(=O)Nc1cnn(CCN(C)C)c1 [Example 52]" measured="> 32 µg/mL"
molecule="CCCC[C@H](CC(=O)NO)C(=O)N1CC2(CC2)C[C@H]1C(=O)Nc1ncccc1F [Example 49]" measured="> 32 µg/mL"
molecule="CCCC[C@H](CC(=O)NO)C(=O)N1CC2(CC2)C[C@H]1C(=O)Nc1nc(C)cs1 [Example 51]" measured="8 µg/mL"

* * *

System: Escherichia coli (including ESBLs, non-ESBLs)
Assay: MIC, two-fold agar dilution (CLSI), clinical isolates
Format: cell-based
Details: strain ECO+ 15-4
Excerpt: 1. The invention adopts the two-fold agar dilution method recommended by the operating procedure of antimicrobial susceptibility testing set by American Clinical and Laboratory Standards Institute (CLSI) to determine the Minimum Inhibitory Concentration (MIC) of the test samples against the tested strains.
Some compounds, each annotated with its measured MIC (anti-bacterial activity).
PARAMETER_MEASURED: MIC (anti-bacterial activity) (µg/mL)

structure=CC(C)(C)c1cc(NC(=O)[C@@H]2CC3(CC3)CN2C(=O)[C@H](CC2CCCC2)CN(O)C=O)no1 parameter_measured="MIC (anti-bacterial activity)" sign_qualifier== measured=16
structure=CCCC[C@H](CN(O)C=O)C(=O)N1CC2(CC2)C[C@H]1C(=O)Nc1cc(C)on1 parameter_measured="MIC (anti-bacterial activity)" sign_qualifier== measured=64
structure=CCCC[C@H](CN(O)C=O)C(=O)N1CC2(CC2)C[C@H]1C(=O)Nc1nccs1 parameter_measured="MIC (anti-bacterial activity)" sign_qualifier== measured=32
structure=CCCC[C@H](CN(O)C=O)C(=O)N1CC2(CC2)C[C@H]1C(=O)Nc1ccno1 parameter_measured="MIC (anti-bacterial activity)" sign_qualifier=> measured=32
structure=CCCC[C@H](CN(O)C=O)C(=O)N1CC2(CC2)C[C@H]1c1nc2ccccc2n1CCN(C)C parameter_measured="MIC (anti-bacterial activity)" sign_qualifier== measured=16
structure=Cc1cc(NC(=O)[C@@H]2CC3(CC3)CN2C(=O)[C@H](CC2CCCC2)CN(O)C=O)no1 parameter_measured="MIC (anti-bacterial activity)" sign_qualifier== measured=16
structure=COC(=O)c1sccc1NC(=O)[C@@H]1CC2(CC2)CN1C(=O)[C@H](CC1CCCC1)CN(O)C=O parameter_measured="MIC (anti-bacterial activity)" sign_qualifier== measured=128
structure=O=CN(O)C[C@@H](CC1CCCC1)C(=O)N1CC2(CC2)C[C@H]1C(=O)Nc1ccncn1 parameter_measured="MIC (anti-bacterial activity)" sign_qualifier== measured=32
structure=CCCC[C@H](CN(O)C=O)C(=O)N1CC2(CC2)C[C@H]1C(=O)NC1CC1 parameter_measured="MIC (anti-bacterial activity)" sign_qualifier== measured=32
structure=O=CN(O)C[C@@H](CC1CCCC1)C(=O)N1CC2(CC2)C[C@H]1C(=O)Nc1ncccc1F parameter_measured="MIC (anti-bacterial activity)" sign_qualifier=> measured=32
structure=O=CN(O)C[C@@H](CC1CCCC1)C(=O)N1CC2(CC2)C[C@H]1C(=O)Nc1ccc(F)cn1 parameter_measured="MIC (anti-bacterial activity)" sign_qualifier== measured=32
structure=CCCC[C@H](CN(O)C=O)C(=O)N1CC2(CC2)C[C@H]1C(=O)Nc1cnccn1 parameter_measured="MIC (anti-bacterial activity)" sign_qualifier== measured=32
structure=O=CN(O)C[C@@H](CC1CCCC1)C(=O)N1CC2(CC2)C[C@H]1C(=O)NC1CC1 parameter_measured="MIC (anti-bacterial activity)" sign_qualifier== measured=32
structure=O=CN(O)C[C@@H](CC1CCCC1)C(=O)N1CC2(CC2)C[C@H]1C(=O)Nc1cc[nH]n1 parameter_measured="MIC (anti-bacterial activity)" sign_qualifier=> measured=32
structure=CCCC[C@H](CN(O)C=O)C(=O)N1CC2(CC2)C[C@H]1C(=O)Nc1nc(C)cs1 parameter_measured="MIC (anti-bacterial activity)" sign_qualifier=> measured=32
structure=O=CN(O)C[C@@H](CC1CCCC1)C(=O)N1CC2(CC2)C[C@H]1C(=O)Nc1ccno1 parameter_measured="MIC (anti-bacterial activity)" sign_qualifier== measured=32
structure=O=CN(O)C[C@@H](CC1CCCC1)C(=O)N1CC2(CC2)C[C@H]1C(=O)Nc1cnccn1 parameter_measured="MIC (anti-bacterial activity)" sign_qualifier== measured=32
structure=Cc1cnc(NC(=O)[C@@H]2CC3(CC3)CN2C(=O)[C@H](CC2CCCC2)CN(O)C=O)s1 parameter_measured="MIC (anti-bacterial activity)" sign_qualifier== measured=16
structure=O=CN(O)C[C@@H](CC1CCCC1)C(=O)N1CC2(CC2)C[C@H]1C(=O)Nc1ncco1 parameter_measured="MIC (anti-bacterial activity)" sign_qualifier=> measured=32
structure=Cc1csc(NC(=O)[C@@H]2CC3(CC3)CN2C(=O)[C@H](CC2CCCC2)CN(O)C=O)n1 parameter_measured="MIC (anti-bacterial activity)" sign_qualifier=> measured=32
structure=O=CN(O)C[C@@H](CC1CCCC1)C(=O)N1CC2(CC2)C[C@H]1C(=O)N1CCS(=O)(=O)CC1 parameter_measured="MIC (anti-bacterial activity)" sign_qualifier=> measured=32
structure=CCCC[C@H](CN(O)C=O)C(=O)N1CC2(CC2)C[C@H]1C(=O)Nc1ccncn1 parameter_measured="MIC (anti-bacterial activity)" sign_qualifier=> measured=32
structure=CCCC[C@H](CN(O)C=O)C(=O)N1CC2(CC2)C[C@H]1C(=O)Nc1nncs1 parameter_measured="MIC (anti-bacterial activity)" sign_qualifier=> measured=32
structure=O=CN(O)C[C@@H](CC1CCCC1)C(=O)N1CC2(CC2)C[C@H]1C(=O)Nc1ccc(N2CCOCC2)cc1 parameter_measured="MIC (anti-bacterial activity)" sign_qualifier=> measured=32
structure=CCCC[C@H](CN(O)C=O)C(=O)N1CC2(CC2)C[C@H]1C(=O)Nc1ccc(N2CCOCC2)cc1 parameter_measured="MIC (anti-bacterial activity)" sign_qualifier=> measured=32
